Values from patent US10065963B2

ASSAYED TARGET: PI3Kγ (p110γ) Recombinant Human Protein (Homo sapiens (Human))
Sequence (P48736 whole entry): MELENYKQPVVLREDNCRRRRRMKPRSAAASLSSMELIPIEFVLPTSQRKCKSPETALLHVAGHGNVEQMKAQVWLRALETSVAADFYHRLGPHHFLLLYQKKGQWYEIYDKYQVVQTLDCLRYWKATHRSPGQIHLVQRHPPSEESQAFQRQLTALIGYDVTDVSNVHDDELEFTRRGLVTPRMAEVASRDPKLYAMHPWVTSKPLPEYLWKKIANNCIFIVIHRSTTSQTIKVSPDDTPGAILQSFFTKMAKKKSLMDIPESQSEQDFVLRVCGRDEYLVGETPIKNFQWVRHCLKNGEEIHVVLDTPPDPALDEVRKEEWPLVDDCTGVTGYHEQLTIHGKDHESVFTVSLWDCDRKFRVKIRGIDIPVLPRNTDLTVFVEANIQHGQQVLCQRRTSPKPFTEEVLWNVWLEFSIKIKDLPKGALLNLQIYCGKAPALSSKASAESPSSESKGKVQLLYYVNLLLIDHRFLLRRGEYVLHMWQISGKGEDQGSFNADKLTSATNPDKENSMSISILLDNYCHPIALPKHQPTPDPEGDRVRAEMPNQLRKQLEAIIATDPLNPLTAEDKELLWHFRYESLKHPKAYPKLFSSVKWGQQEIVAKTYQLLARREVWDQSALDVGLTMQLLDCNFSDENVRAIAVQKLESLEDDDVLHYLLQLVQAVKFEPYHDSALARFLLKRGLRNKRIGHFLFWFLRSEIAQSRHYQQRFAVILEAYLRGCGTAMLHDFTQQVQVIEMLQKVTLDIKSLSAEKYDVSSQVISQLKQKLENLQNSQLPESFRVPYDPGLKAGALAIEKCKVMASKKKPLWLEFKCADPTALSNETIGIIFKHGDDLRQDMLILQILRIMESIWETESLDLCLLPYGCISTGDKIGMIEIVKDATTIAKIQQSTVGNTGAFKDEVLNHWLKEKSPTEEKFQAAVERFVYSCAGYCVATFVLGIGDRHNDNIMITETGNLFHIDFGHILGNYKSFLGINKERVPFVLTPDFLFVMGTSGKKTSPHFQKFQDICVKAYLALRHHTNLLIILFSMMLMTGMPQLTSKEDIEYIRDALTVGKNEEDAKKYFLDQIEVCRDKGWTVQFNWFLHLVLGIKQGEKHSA
PROTOCOL NOTES: PI3K-γ scintillation proximity assay
APPLIED CONDITIONS: 2 μM ATP, 20 μM PIP2
pIC50: −log10 of the molar value. Counter-ions that a name gives are not always drawn.
READOUT TYPE: pIC50

* CC(NC(=O)c1c(N)nn2cccnc12)c1cc(Cl)c2cncn2c1-c1cnn(C)c1 (racemic) [Example 140, trifluoroacetate salt] | > 7.00
* CC1(C)CN(c2c(CNC(=O)c3c(N)nn4cccnc34)cc(Cl)c3c(Cl)ncn23)CCS1(=O)=O [Example 170, trifluoroacetate salt] | > 7.00
* CC(NC(=O)c1c(N)nn2cccnc12)c1cc(Cl)c2cncn2c1N1CCS(=O)(=O)CC1C (single isomer, unassigned) [Example 38A, trifluoroacetate salt] | > 7.00
* CC(NC(=O)c1c(N)nn2cccnc12)c1cc(Cl)c2cncn2c1N1CCN(S(C)(=O)=O)CC1 (racemic) [Example 141, trifluoroacetate salt] | > 7.00
* CC(NC(=O)c1c(N)nn2cccnc12)c1cc(C2CC2)c2cncn2c1-c1ccccc1 (racemic) [Example 117, trifluoroacetate salt] | > 6.30
* COc1cncc(-c2c(C(C)NC(=O)c3c(N)nn4cccnc34)cc(Cl)c3cncn23)c1 (stereo not drawn) [Example 134, trifluoroacetate salt] | > 7.00

* * *

ASSAYED TARGET: PI3Kδ (p110δ/p85α) Recombinant Human Protein (Homo sapiens (Human), UniProt O00329)
Sequence (O00329 whole entry): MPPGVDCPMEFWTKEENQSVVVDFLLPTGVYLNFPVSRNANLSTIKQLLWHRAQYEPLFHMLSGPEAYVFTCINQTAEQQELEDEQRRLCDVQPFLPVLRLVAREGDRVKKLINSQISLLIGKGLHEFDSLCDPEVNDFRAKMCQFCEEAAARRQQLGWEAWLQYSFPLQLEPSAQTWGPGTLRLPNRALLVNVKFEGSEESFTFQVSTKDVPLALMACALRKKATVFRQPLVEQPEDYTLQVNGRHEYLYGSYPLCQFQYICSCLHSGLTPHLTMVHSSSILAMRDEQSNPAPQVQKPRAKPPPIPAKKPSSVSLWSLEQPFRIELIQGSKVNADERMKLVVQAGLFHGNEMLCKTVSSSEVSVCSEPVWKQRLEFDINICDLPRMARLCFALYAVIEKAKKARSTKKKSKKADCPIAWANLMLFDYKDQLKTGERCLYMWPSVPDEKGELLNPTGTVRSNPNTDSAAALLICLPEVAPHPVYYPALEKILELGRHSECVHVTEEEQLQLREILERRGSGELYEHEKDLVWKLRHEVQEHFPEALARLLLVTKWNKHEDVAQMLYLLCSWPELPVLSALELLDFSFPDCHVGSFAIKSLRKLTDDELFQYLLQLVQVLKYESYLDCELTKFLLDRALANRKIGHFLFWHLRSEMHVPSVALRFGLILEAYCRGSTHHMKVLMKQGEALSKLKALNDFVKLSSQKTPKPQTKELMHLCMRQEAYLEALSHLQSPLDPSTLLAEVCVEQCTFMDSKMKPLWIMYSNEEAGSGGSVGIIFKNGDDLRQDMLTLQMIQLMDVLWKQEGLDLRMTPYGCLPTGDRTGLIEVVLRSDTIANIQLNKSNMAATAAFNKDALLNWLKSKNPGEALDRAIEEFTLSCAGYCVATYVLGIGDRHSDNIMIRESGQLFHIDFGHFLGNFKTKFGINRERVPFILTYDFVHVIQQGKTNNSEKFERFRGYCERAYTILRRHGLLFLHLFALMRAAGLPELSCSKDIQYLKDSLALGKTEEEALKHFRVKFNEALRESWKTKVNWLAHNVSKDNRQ
Sequence (P27986 whole entry partner): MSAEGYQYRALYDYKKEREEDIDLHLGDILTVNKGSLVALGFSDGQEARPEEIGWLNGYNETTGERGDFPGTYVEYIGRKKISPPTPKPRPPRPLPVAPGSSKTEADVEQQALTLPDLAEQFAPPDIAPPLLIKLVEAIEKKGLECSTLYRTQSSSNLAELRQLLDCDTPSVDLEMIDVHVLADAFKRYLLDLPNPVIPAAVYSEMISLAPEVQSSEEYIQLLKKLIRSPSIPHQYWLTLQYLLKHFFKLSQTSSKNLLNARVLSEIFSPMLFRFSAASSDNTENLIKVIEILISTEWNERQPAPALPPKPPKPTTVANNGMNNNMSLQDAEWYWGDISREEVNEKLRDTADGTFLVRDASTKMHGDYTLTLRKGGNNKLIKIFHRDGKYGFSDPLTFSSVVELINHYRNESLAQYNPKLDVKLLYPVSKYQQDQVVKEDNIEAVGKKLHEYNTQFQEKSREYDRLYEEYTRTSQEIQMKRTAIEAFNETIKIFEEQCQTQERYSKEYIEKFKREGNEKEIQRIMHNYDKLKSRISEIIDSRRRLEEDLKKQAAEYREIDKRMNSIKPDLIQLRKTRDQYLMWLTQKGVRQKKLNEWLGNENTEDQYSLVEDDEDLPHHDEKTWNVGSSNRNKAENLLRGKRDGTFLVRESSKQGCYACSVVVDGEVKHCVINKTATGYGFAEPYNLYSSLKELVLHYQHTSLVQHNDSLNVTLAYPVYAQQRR
PROTOCOL NOTES: PI3Kδ scintillation proximity assay
Type: biochemical
APPLIED CONDITIONS: 2 μM ATP, 20 μM PIP2
Structures can show the parent of a compound that is named as a salt.
READOUT TYPE: IC50

• COC1CCN(c2c(C(C)NC(=O)c3c(N)nn4cccnc34)cc(Cl)c3cncn23)CC1 (racemic) = < 500 nM
• CC(NC(=O)c1c(N)nn2cccnc12)c1cc(Cl)c2cncn2c1N1CC[C@H](F)C1 (stereo partly shown) [Example 75B, bistrifluoroacetate] = < 100 nM
• CC(NC(=O)c1c(N)nn2cccnc12)c1cc(Cl)c2cncn2c1N1CCCC(F)C1 (single isomer, unassigned) [Example 73A] = < 100 nM
• CC(NC(=O)c1c(N)nn2cccnc12)c1cc(Cl)c2cn[nH]c2c1N1CC[C@H](NS(C)(=O)=O)C1 (stereo partly shown) [Example 96A, trifluoroacetate] = < 100 nM
• CC(NC(=O)c1c(N)nn2cccnc12)c1cc(Cl)c2cncn2c1-c1cnn(C)c1 (racemic) [Example 140, trifluoroacetate salt] = < 100 nM
• CC(NC(=O)c1c(N)nn2cccnc12)c1cc(Cl)c2ccnn2c1N1CCC(C#N)CC1 (stereo not shown) [Example 56, trifluoroacetate] = < 100 nM
• CC1(C)CN(c2c(CNC(=O)c3c(N)nn4cccnc34)cc(Cl)c3cncn23)CCS1(=O)=O [Example 168, trifluoroacetate salt] = < 2000 nM

* * *

ASSAYED TARGET: PI3Kδ (p110δ/p85α) Recombinant Human Protein (Homo sapiens (Human), UniProt O00329)
PROTOCOL NOTES: PI3Kδ scintillation proximity assay
Format: biochemical
APPLIED CONDITIONS: 2 μM ATP, 20 μM PIP2
Counter-ions that a name gives are not always drawn.
Recorded measurements of IC50, one per entry
READOUT TYPE: IC50

* CC(NC(=O)c1c(N)nn2cccnc12)c1cc(Cl)c2cn[nH]c2c1N1CCC(O)C1 (racemic) [Example 90A, bis(trifluoroacetate)] | < 500 nM
* CC(NC(=O)c1c(N)nn2cccnc12)c1cc(Cl)c2cncn2c1N1CCC(O)C1 (centres unmarked) [Example 148, trifluoroacetate salt] | < 500 nM
* N#Cc1ncn2c(N3CCCC3)c(CNC(=O)c3c(N)nn4cccnc34)cc(Cl)c12 [Example 173, trifluoroacetate salt] | < 2000 nM
* CC(NC(=O)c1c(N)nn2cccnc12)c1cc(Cl)c2cncn2c1N1CCC(F)CC1 (centres unmarked) [Example 66, bistrifluoroacetate] | < 100 nM
* CC(NC(=O)c1c(N)nn2cccnc12)c1cc(Cl)c2cncn2c1N1C[C@@H](O)C[C@@H](F)C1 (some centres unmarked) [Example 156, trifluoroacetate salt] | < 2000 nM
* C[C@H](NC(=O)c1c(N)nn2cccnc12)c1cc(Cl)c2ccnn2c1N1CCS(=O)(=O)CC1 [Example 57, trifluoroacetate] | < 100 nM
* Cc1ncc2c(Cl)cc(C(C)NC(=O)c3c(N)nn4cccnc34)c(N3CCCS(=O)(=O)CC3)n12 (racemic) [Example 158, trifluoroacetate salt] | < 500 nM
* CC(NC(=O)c1c(N)nn2cccnc12)c1cc(Cl)c2cncn2c1N1CCCC1(C)C (centres unmarked) [Example 70, bistrifluoroacetate] | < 100 nM
* CC1(C)CN(c2c(CNC(=O)c3c(N)nn4cccnc34)cc(Cl)c3c(Cl)ncn23)CCS1(=O)=O [Example 170, trifluoroacetate salt] | < 2000 nM
* Nc1nn2cccnc2c1C(=O)NC(c1cc(Cl)c2cncn2c1N1CCS(=O)(=O)CC1)C(F)(F)F (racemic) [Example 180, trifluoroacetate salt] | < 100 nM
* CCOc1c(C(C)NC(=O)c2c(N)nc3ccc(-c4cncc(CO)c4)nn23)cc(Cl)c2c(Cl)n[nH]c12 (centres unmarked) [Example 49] | < 100 nM
* CCOc1c(C(C)NC(=O)c2c(N)nn3cccnc23)cc(Cl)c2cn(CCO)nc12 (centres unmarked) [Example 6a, trifluoroacetate] | < 2000 nM
* CC1CN(c2c(CNC(=O)c3c(N)nn4cccnc34)cc(Cl)c3cncn23)CCS1(=O)=O (racemic) [Example 167, trifluoroacetate salt] | < 500 nM
* CCOc1c(C(C)NC(=O)c2c(N)nn3cccnc23)cc(Cl)c2c(Br)n(CCO)nc12 (centres unmarked) [Example 53] | < 2000 nM
* C[C@H](NC(=O)c1c(N)nn2cccnc12)c1cc(Cl)c2c(Cl)ncn2c1N1CCNS(=O)(=O)CC1 [Example 160, trifluoroacetate salt] | < 100 nM
* CC(NC(=O)c1c(N)nn2cccnc12)c1cc(Cl)c2cncn2c1N1CCC2(CC1)COC(=O)N2 (centres unmarked) [Example 79, trifluoroacetate] | < 500 nM
* CCOc1c(C(C)NC(=O)c2c(N)nn3cccnc23)cc(Cl)c2cn(CCOC)nc12 (centres unmarked) [Example 5a, trifluoroacetate] | < 2000 nM
* CC1CN(c2c(C(NC(=O)c3c(N)nn4cccnc34)C3CC3)cc(Cl)c3c(C#N)ncn23)CCS1(=O)=O (centres unmarked) [Example 176, trifluoroacetate salt] | < 2000 nM
* COC1CCN(c2c(C(C)NC(=O)c3c(N)nn4cccnc34)cc(Cl)c3cncn23)C1 (centres unmarked) [Example 144, trifluoroacetate salt] | < 500 nM
* CC(NC(=O)c1c(N)nn2cccnc12)c1cc(Cl)c2cncn2c1N1CCCC(C)(O)C1 (single isomer, unassigned) [Example 76B, trifluoroacetate] | < 500 nM
* CC(NC(=O)c1c(N)nn2cccnc12)c1cc(Cl)c2nncn2c1-c1ccccc1 (racemic) [Example 185, trifluoroacetate salt] | ≥ 2000 nM
* CC(NC(=O)c1c(N)nn2cccnc12)c1cc(Cl)c2cn[nH]c2c1N1CCC(S(=O)(=O)N(C)C)CC1 (centres unmarked) [Example 93] | < 2000 nM
* CC(NC(=O)c1c(N)nn2cccnc12)c1cc(Cl)c2cncn2c1N1CCNS(=O)(=O)CC1 (racemic) [Example 149] | < 100 nM
